Tested on: MAPK signaling (phospho-MEK1/2, phospho-ERK1/2) in A375 cells
Experiment: Immunoblotting of MEK1/2 and ERK1/2 phosphorylation, A375
Assay type: cell-based, human
Conditions: A375, highest concentrations (10 μM), 24 h
observedProperty: inhibition of ERK1/2 phosphorylation after 24 h

compound	result
CC(C)(C)c1nc(-c2cccc(NS(=O)(=O)c3c(F)cccc3F)c2F)c(-c2ccnc(N)n2)s1 [Dabrafenib, reference compound]	diminished inhibition
CCCS(=O)(=O)Nc1cc(Cl)cc(-c2nc(C(C)(C)C)sc2-c2ccnc(N)n2)c1F [6-261]	sustained
CCCS(=O)(=O)Nc1ccc(F)c(C(=O)c2c[nH]c3ncc(Cl)cc23)c1F [PLX4720, reference compound]	diminished inhibition
CCCS(=O)(=O)Nc1cc(Cl)cc(-c2nc(C(C)(C)C)sc2-c2ccnc(NCCCCC(=O)O)n2)c1F [6-263]	sustained

====

System: HCT116 cells
Assay: 72-hour cell viability assay (Alamar Blue), HCT116
Assay type: cell-based
Settings: Homo sapiens, HCT-116, WT BRAF, read-out: HCT116 IC50
pIC50: −log10 of the molar value.
Provide the recorded pIC50 for the entries that follow.

Please give pIC50 for each item listed below.
1. CCCS(=O)(=O)Nc1cc(Cl)cc(-c2nc(C(C)(C)C)sc2-c2ccnc(NCCCCC(=O)O)n2)c1F [6-263]
2. CCCS(=O)(=O)Nc1ccc(F)c(C(=O)c2c[nH]c3ncc(-c4ccc(Cl)cc4)cc23)c1F [Vemurafenib, reference compound]
3. CCCS(=O)(=O)Nc1cc(Cl)cc(-c2nc(C(C)(C)C)sc2-c2ccnc(N)n2)c1F [6-261]

Result:
1: 5.68; 2: < 5.00; 3: < 6.00

====

Assay: Pharmacokinetics in CD-1 mice, serum by LC-MS/MS
Format: in vivo, mouse
Details: CD-1, mouse, serum, intraperitoneal; 20 mg/kg IP, 45 min; read-out: [Drug] serum concentration
observedProperty: concentration at 45 min (µM)
Numbers only, in µM.

Q: Report concentration at 45 min, nothing else, for this compound: "CCCS(=O)(=O)Nc1cc(Cl)cc(-c2nc(C(C)(C)C)sc2-c2ccnc(N)n2)c1F"
Result: 6.7

====

Target: P-gp (Homo sapiens, UniProt P08183)
Construct: host or cells: MDCK (MDR1-MDCK)
Sequence (P08183 whole entry): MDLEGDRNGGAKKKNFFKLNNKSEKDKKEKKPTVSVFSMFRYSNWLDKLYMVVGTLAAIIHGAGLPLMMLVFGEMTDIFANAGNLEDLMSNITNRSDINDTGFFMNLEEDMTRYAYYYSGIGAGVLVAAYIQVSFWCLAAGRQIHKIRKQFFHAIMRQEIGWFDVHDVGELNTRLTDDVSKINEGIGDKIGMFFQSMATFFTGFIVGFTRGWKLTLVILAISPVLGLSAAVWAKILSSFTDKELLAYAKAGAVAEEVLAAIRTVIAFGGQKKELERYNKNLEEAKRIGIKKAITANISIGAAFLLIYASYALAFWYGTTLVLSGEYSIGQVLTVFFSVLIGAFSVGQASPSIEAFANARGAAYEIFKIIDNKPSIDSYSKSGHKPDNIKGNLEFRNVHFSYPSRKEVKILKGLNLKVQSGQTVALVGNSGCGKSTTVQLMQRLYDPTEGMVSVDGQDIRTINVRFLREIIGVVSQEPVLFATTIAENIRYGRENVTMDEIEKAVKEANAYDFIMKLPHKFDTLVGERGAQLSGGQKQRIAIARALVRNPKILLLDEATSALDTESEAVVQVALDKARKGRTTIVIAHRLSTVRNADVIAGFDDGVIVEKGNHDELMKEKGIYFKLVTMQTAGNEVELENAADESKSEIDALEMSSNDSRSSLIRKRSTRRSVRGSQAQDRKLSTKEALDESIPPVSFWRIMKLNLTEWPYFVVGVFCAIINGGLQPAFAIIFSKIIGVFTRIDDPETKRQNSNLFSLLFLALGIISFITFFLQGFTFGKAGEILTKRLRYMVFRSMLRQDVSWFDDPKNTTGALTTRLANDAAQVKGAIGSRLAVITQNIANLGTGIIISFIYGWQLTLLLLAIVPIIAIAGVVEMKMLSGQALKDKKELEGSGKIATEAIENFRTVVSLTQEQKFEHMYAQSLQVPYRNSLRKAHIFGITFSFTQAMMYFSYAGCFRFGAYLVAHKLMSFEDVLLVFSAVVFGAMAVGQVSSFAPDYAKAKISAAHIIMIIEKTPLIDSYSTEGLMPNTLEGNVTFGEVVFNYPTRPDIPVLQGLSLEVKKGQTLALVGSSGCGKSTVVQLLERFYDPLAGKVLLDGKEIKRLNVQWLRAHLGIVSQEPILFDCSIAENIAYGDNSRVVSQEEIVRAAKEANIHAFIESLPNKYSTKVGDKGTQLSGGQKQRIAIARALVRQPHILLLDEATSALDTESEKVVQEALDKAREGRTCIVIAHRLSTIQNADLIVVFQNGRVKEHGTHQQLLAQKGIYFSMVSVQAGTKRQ
Assay: MDR1-MDCK P-gp transwell bidirectional transport assay
Format: in vitro ADME
Details: dog, MDCK-MDR1, MDR1-MDCK, 10 μM, 90 min
I'd appreciate it if you could supply Papp B→A at 90 min, 10 µM values for the items below.
Answers are plain numbers, in ×10⁻⁶ cm/s.

1. CC(C)(C)c1nc(-c2cccc(NS(=O)(=O)c3cc(C(F)(F)F)ccc3C(F)(F)F)c2F)c(-c2ccnc(NCCCCC(=O)O)n2)s1 0.46
2. CC(C)(C)c1nc(-c2c(F)ccc(NS(=O)(=O)c3cc(C(F)(F)F)ccc3C(F)(F)F)c2F)c(-c2ccnc(NCCCCC(=O)O)n2)s1 0.398

Continue with the next compound.
Q: For the compound "CC(C)(C)c1nc(-c2cccc(NS(=O)(=O)c3c(F)cccc3F)c2F)c(-c2ccnc(N[C@H]3CC[C@@H](C(=O)O)CC3)n2)s1" , report Papp B→A at 90 min, 10 µM.
Result: 2.26
